- protocol-text: Cytotoxicity evaluation
- condition-description: human, Cytotoxicity (%), short treatment in the presence of S9 mix; 0.100 mmol/L
reported-endpoint: cytotoxicity at 0.1 mmol/L
Enter the number, and then the unit.

Endpoint output: cytotoxicity at 0.1 mmol/L of CCCCC/C=C\C/C=C\CCCCCCCCP(=O)(OCC)OCC . Value?
19.4%

---

- protocol-text: Cytotoxicity evaluation
- condition-description: human, Cytotoxicity (%), short treatment in absence of S9 mix; 0.050 mmol/L
reported-endpoint: cytotoxicity at 0.05 mmol/L (%)
One number for each entry, in %.

Which cytotoxicity at 0.05 mmol/L value is on record for CCCCC/C=C\C/C=C\CCCCCCCCP(=O)(OCC)OCC ?
14.7

---

- protocol-text: Cytotoxicity evaluation
- condition-description: human, Cytotoxicity (%), short treatment in the presence of S9 mix; 10 mmol/L
reported-endpoint: cytotoxicity at 10 mmol/L (%)
Numbers only, in %.

Recorded cytotoxicity at 10 mmol/L of CCCCC/C=C\C/C=C\CCCCCCCC(=O)OCC1(C)COC1 , please.
1.64

---

- protocol-text: Cytotoxicity evaluation
- condition-description: human, Cytotoxicity (%), extended treatment in the absence of S9 mix; 0.010 mmol/L
reported-endpoint: cytotoxicity at 0.01 mmol/L (%)
Answers are plain numbers, in %.

Find the recorded cytotoxicity at 0.01 mmol/L belonging to CCCCC/C=C\C/C=C\CCCCCCCCP(=O)(OCC)OCC [NKS-3] and report it.
35.3

---

- protocol-text: Cytotoxicity evaluation
- condition-description: human, Cytotoxicity (%), extended treatment in the absence of S9 mix; 0.040 mmol/L
reported-endpoint: cytotoxicity at 0.04 mmol/L (%)
Give bare numbers, in %.

Given the molecule CCCCC/C=C\C/C=C\CCCCCCCCP(=O)(OCC)OCC , what is its reported cytotoxicity at 0.04 mmol/L?
73.7

---

- protocol-text: Pharmacokinetics and detection in blood by LC-MS
- Type: in vivo, mice
- condition-description: mouse, plasma, iv, 10 mg/kg
reported-endpoint: Vd (L/kg)
Answers are plain numbers, in L/kg.

Record request: Vd value, item CCCCC/C=C\C/C=C\CCCCCCCCP(=O)(OCC)OCC
1.23

---

- protocol-text: Pharmacokinetics and detection in blood by LC-MS
- Assay type: in vivo, mice
- condition-description: mouse, plasma, iv, 10 mg/kg, AUClast, mice; intravenous 10 mg/kg body weight; NCA (AUC0–6 h)
reported-endpoint: AUC(0-t)

Need AUC(0-t) of CCCCC/C=C\C/C=C\CCCCCCCCP(=O)(OCC)OCC [NKS-3] , thanks.
~60000 ng·h/mL

---

- protocol-text: Pharmacokinetics and detection in blood by LC-MS
- Assay type: in vivo, mice
- condition-description: mouse, plasma, iv, 10 mg/kg, Cmax, mice, dose of 10 mg/kg body weight
reported-endpoint: Cmax

Given the entry CCCCC/C=C\C/C=C\CCCCCCCCP(=O)(OCC)OCC [NKS-3] , report its measured Cmax.
~48000 ng/mL

---

- protocol-text: Pharmacokinetics and detection in blood by LC-MS
- Type: in vivo, mice
- condition-description: mouse, plasma, iv, 10 mg/kg
reported-endpoint: half-life

What measured half-life goes with CCCCC/C=C\C/C=C\CCCCCCCCP(=O)(OCC)OCC [NKS-3] ?
4 h

---

- protocol-text: Pharmacokinetics and detection in blood by LC-MS
- Format: in vivo, mice
- condition-description: mouse, plasma, iv, 10 mg/kg
reported-endpoint: Tmax

Bench note: what Tmax did CCCCC/C=C\C/C=C\CCCCCCCCP(=O)(OCC)OCC [NKS-3] show?
5 min
